Reference source for all entries: patent US8759386B2

Molecular target: human CRTH2 receptor (Homo sapiens (Human))
Sequence (Q9Y5Y4 whole entry): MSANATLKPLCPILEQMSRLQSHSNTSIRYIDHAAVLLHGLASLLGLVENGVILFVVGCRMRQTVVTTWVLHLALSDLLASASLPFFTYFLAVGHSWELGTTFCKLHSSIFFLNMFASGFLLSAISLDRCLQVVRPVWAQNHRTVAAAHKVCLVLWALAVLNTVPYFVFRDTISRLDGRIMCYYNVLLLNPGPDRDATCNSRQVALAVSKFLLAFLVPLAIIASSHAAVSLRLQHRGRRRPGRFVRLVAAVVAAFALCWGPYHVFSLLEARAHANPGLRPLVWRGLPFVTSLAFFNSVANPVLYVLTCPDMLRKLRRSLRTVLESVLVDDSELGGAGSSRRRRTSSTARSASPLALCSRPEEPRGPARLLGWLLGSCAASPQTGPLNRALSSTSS
Experiment: CRTH2 receptor radioligand binding assay (SPA, [3H]-PGD2, CHO-K1-hCRTH2 cell membranes)
Conditions: Table 1, compounds of formula Ia″; displacement of [3H]-PGD2 from CHO-K1-hCRTH2 membranes
pKi: −log10 of the molar value.
Decide using pKi: a value greater than or equal to 9 is class 1, a smaller one is class 0.

Solved entries (count: 5):
Exercise: # bool: pKi of Cc1nn(Cc2ccc(NC(=O)c3cc4cc(Cl)ccc4o3)cc2)c(C)c1CC(=O)O [Compound 8] >= 9
Solution: class 1

Exercise: Confirm if pKi reported for the compound CCc1nn(Cc2ccc(NC(=O)c3cc4cc(F)ccc4[nH]3)cc2)c(CC)c1CC(=O)O [Compound 23] is 9 or above.
Solution: class 1

Exercise: Answer whether pKi of Cc1nn(Cc2ccc(NC(=O)c3c(C)c4ccccc4n3C)cc2)c(C)c1CC(=O)O [Compound 13] is greater than or equal to 9.
Solution: class 0

Exercise: Please check the record Cc1nn(Cc2ccc(NC(=O)c3oc4c(Cl)cccc4c3C)cc2)c(C)c1CC(=O)O [Compound 33] and state if its pKi is at or above 9.
Solution: class 0

Exercise: Can CCn1c(C(=O)Nc2ccc(Cn3nc(C)c(CC(=O)O)c3C)c(F)c2)cc2ccc(F)cc21 [Compound 41] be said to have pKi at or above 9?
Solution: class 1

***
Exercise: Could you please find out whether CCc1nn(Cc2ccc(NC(=O)c3cc4ccccc4[nH]3)cc2)c(CC)c1CC(=O)O [Compound 20] has pKi that meets 9 or exceeds it?
Solution: class 1

Exercise: Check the entry Cc1nn(Cc2ccc(NC(=O)c3cc4cc(F)ccc4n3C)cc2F)c(C)c1CC(=O)O [Compound 51] : does pKi equal or exceed 9?
Solution: class 1
